Test system: UACC-62 melanoma
test.summary: NCI-60 one-dose screen, 48 h
test.parameters: 10 µM unless noted
About 83,000 compounds went through this panel and 20% of them were active in at least one assay; those are over-represented in the sample as a whole. The source made the active and inactive calls. Rule for the calls: active = growth percent below 10; inactive = the rest.
Write down the outcome that applies. Available outcomes: active, inactive

Solved cases (3 shown):
{"compound": "CCCCCCCCCCCCNC(=O)[C@H]1CSC(c2ccsc2)N1 (stereo partly specified)", "category.label": "active"}
{"compound": "C=C(C)[C@@H]1CC[C@]2(C(=O)N3CCNCC3)CC[C@]3(C)[C@H](CC[C@@H]4[C@@]5(C)C/C(=C/c6ccncc6)C(=O)C(C)(C)[C@@H]5CC[C@]43C)[C@@H]12", "category.label": "inactive"}
{"compound": "COc1ccc(-c2nc3sccn3c2/C=C/C(=O)c2cc(F)cc(F)c2)cc1", "category.label": "inactive"}

Each compound tested received a call. Report the one for O=C1Nc2ccc(Cl)cc2C12Nc1cc(Cl)ccc1S2 (stereo unspecified) .
inactive

Each compound tested received a call. Report the one for N=C(N)c1ccc(-c2ccc(-c3cncc4ccccc34)s2)cc1F .
active

Each compound tested received a call. Report the one for O=S(=O)(NCCCNc1nccc(-n2ccc3cccnc32)n1)c1cccc(C(F)(F)F)c1 .
inactive

Each compound tested received a call. Report the one for COc1ccc(Nc2nc(N)nc3c2CCN(Cc2ccc(OC)cc2OC)C3=O)cc1 .
inactive

Each compound tested received a call. Report the one for Cn1cnc2c(N3CCN(C(=O)OCc4ccc5c(Cl)cc(Cl)c(O)c5n4)CC3)nc(Cl)nc21 .
inactive

Each compound tested received a call. Report the one for COc1ccc2[nH]c(C(=O)OCc3ccc4c(Cl)cc(Cl)c(O)c4n3)cc2c1 .
active

Each compound tested received a call. Report the one for Nc1cc2c(cc1C(=O)c1cccc(F)c1)OCCO2 .
inactive

Each compound tested received a call. Report the one for NC(=N\N=C/c1ccc(O)cc1)/C(N)=N\N=C/c1ccc(O)cc1 .
inactive

Each compound tested received a call. Report the one for c1coc(CNc2ccnc(Nc3ccc(OCCN4CCCCC4)cc3)n2)c1 .
inactive

* * *

Tested on: MDA-MB-435 melanoma
test.summary: NCI-60 one-dose screen, 48 h
test.parameters: 10 µM unless noted
This is part of a sample that, as a whole, favours compounds with a hit. Of some 83,000 tested, about 20% had one in any assay. Activity calls are given as the source filed them. Rule for the calls: active = growth percent below 10; inactive = the rest.
Write down the outcome that applies. Available outcomes: True for active, False for inactive

Solved cases (3 shown):
{"compound": "COc1cc2c(c(OC)c1OC)-c1ccc(N)c(=O)cc1[C@@H](NC(C)=O)CC2", "category.label": "True"}
{"compound": "CN1CCN(Cc2ccc(NC(=O)c3cncc(C#Cc4cnc(N)c5ccncc45)c3)cc2C(F)(F)F)CC1", "category.label": "True"}
{"compound": "O=[N+]([O-])c1cc(S(=O)(=O)Oc2ccccc2)ccc1Cl", "category.label": "False"}

Each compound tested received a call. Report the one for C=C1CCC2C(C)(CO)C(O)CCC2(C)C1C/C=C1/C(=O)OCC1O/C=C/c1ccccc1 (stereo not given) .
False

Each compound tested received a call. Report the one for Cc1ccc(S(=O)(=O)NC(=O)n2cc(-c3ccncc3)c(-c3ccc(Cl)c(O)c3)n2)cc1 .
False

* * *

Reported growth values are given for each entry in this list.
System: MDA-MB-435 melanoma
test.summary: NCI-60 one-dose screen, 48 h (100 = growth as untreated, 0 = no growth, -100 = all killed)
test.parameters: 10 µM unless noted
This is part of a sample that, as a whole, favours compounds with a hit. Of some 83,000 tested, about 20% had one in any assay.
Record the value in %, omitting the unit from your answer.

Record excerpt, results attached:
{"compound": "CN(C)CCOC(=O)Nc1ccccc1Cl", "measure.name": "growth", "unit.abbrev": "%", "recorded.value": 105}
{"compound": "CCCCNC(=O)Oc1ccc(/C(=C(\\C)c2ccccc2)c2ccc(OCCN(CC)CC)cc2)cc1", "measure.name": "growth", "unit.abbrev": "%", "recorded.value": 58.7}
{"compound": "COc1cc(C2CC(c3ccc4c(c3)OCO4)=NN2C=O)cc(OC)c1OC (centres undefined)", "measure.name": "growth", "unit.abbrev": "%", "recorded.value": -25.9}

Here is the next item to consider.
Value of growth reported for the compound C[n+]1c(/C=C/c2c(O)ccc3ccccc23)ccc2ccccc21 is 25.6
